Tested on: TNF
measurement_protocol: PBMC assay: TNF cytokine level after LPS stimulation
Type: cell-based
experimental_setup: human PBMCs, 30 min pre-incubation, 100 ng/ml LPS for 6 hrs, supernatant, MSD technology
Reported EC50 values for the following compounds.

// solved cases for EC50 follow
{"columns": ["chem_smiles", "tested_system", "EC50"],
 "data": [
  ["COCCN(C)c1nn(CC(=O)Nc2ccncn2)c(=O)c2cc3sccc3n12", "TNF", "> 10 µM"],
  ["CNc1nn(CC(=O)Nc2ccncn2)c(=O)c2cc3scnc3n12", "TNF", "> 10 µM"],
  ["CN(C)c1nn(CC(=O)N[C@H]2C[C@@](C)(O)C2)c(=O)c2cc3scnc3n12", "TNF", "> 10 µM"],
  ["CN(C)c1nn(CC(=O)N[C@H]2C[C@@](C)(O)C2)c(=O)c2cc3sccc3n12", "TNF", "> 10 µM"],
  ["CCCN(C)c1nn(CC(=O)Nc2ccncn2)c(=O)c2cc3scnc3n12", "TNF", "> 10 µM"],
  ["CN(C)c1nn(CC(=O)Nc2ccncn2)c(=O)c2cc3scnc3n12", "TNF", "> 10 µM"]
]}

In: Data request, read-out EC50, for CN(C)c1nn(CC(=O)Nc2ccc3nncn3n2)c(=O)c2cc3sc(Cl)cc3n12
Out: 6.97 µM

In: Item CCN(C)c1nn(CC(=O)Nc2ccncn2)c(=O)c2cc3scnc3n12 has what recorded EC50?
Out: 8.56 µM

====

measured_endpoint: melting point (°C)

{"columns": ["chem_smiles", "readout_units", "recorded_number"],
 "data": [
  ["CN(C)c1nn(CC(=O)N[C@H]2C[C@@](C)(O)C2)c(=O)c2cc3scnc3n12", "°C", 221.7],
  ["CN(C)c1nn(CC(=O)Nc2ccncn2)c(=O)c2cc3scnc3n12", "°C", 248.3],
  ["CCN(C)c1nn(CC(=O)Nc2ccncn2)c(=O)c2cc3scnc3n12", "°C", 214.8],
  ["CCCN(C)c1nn(CC(=O)Nc2ccncn2)c(=O)c2cc3scnc3n12", "°C", 196.7],
  ["CNc1nn(CC(=O)Nc2ccncn2)c(=O)c2cc3scnc3n12", "°C", 263.5]
]}

Values were extracted from patent US20230203064A1.
